biological target: thrombin (Homo sapiens); experiment: anti-thrombin activity; clotting assay (coagulation time with fibrinogen as substrate); assay type: biochemical; design: 100 μl of human-thrombin prepared at 10 NIH units/ml in aforesaid buffer; details: concentration corresponding to 50 thrombin units; human-thrombin 10 NIH units/ml, human-fibrinogen 6 mg/ml; read-out: 50% Inhibition Concentration (converted)
*1 amine or outer side, *2 acyl side, *3 side chain or, on linkers, in order; H or OH if unused. Where a SMILES comes first, the peptide text is derived from it. [ ]: non-standard residue; d: D form. sY = N[C@@H](Cc1ccc(OS(=O)(=O)O)cc1)C(=O)O; dAsu = N[C@H](CCCCCC(=O)O)C(=O)O; Suc = O=C(CCC(=O)[*:2])[*:1]
Response field label takes 1 when IC50 is strictly below 3 µM and -1 in all other cases.

CC[C@H](C)[C@H](NC(=O)[C@@H]1CCCN1C(=O)[C@H](CCC(=O)O)NC(=O)[C@H](Cc1ccccc1)NC(=O)CCC(=O)O)C(=O)N1CCC[C@H]1C(=O)N[C@@H](CCC(=O)O)C(=O)N[C@@H](Cc1ccc(O)cc1)C(=O)N[C@@H](Cc1ccc(O)cc1)C(=O)N[C@@H](CC(C)C)C(=O)N[C@H](CCCCCC(N)=O)C(N)=O [(W)] (Suc-FEPIPEYYL[dAsu](NH2)-NH2) = -1
CC[C@H](C)[C@H](NC(=O)[C@H](CCC(=O)O)NC(=O)[C@H](CCC(=O)O)NC(=O)[C@H](Cc1ccccc1)NC(=O)[C@H](CC(=O)O)NC(=O)CN)C(=O)N1CCC[C@H]1C(=O)N[C@@H](CCC(=O)O)C(=O)N[C@@H](Cc1ccc(O)cc1)C(=O)N[C@@H](Cc1ccc(OS(=O)(=O)O)cc1)C(=O)N[C@@H](CC(C)C)C(=O)N[C@@H](CCC(N)=O)C(=O)O [Sulfated form of (A)] (H-GDFEEIPEY[sY]LQ-OH) = 1
CC[C@H](C)[C@H](NC(=O)[C@@H]1CCCN1C(=O)[C@H](CCC(=O)O)NC(=O)[C@H](Cc1ccccc1)NC(=O)CCC(=O)O)C(=O)N1CCC[C@H]1C(=O)N[C@@H](CCC(=O)O)C(=O)N[C@@H](Cc1ccc(O)cc1)C(=O)N[C@@H](Cc1ccc(O)cc1)C(=O)N[C@@H](CC(C)C)C(=O)N[C@H](CCCCCC(=O)OC)C(=O)OC [(U)] (Suc-FEPIPEYYL[dAsu](OMe)-OMe) = -1

Next compound, please.
Does CC[C@H](C)[C@H](NC(=O)[C@@H]1CCCN1C(=O)[C@H](CCC(=O)O)NC(=O)[C@H](Cc1ccccc1)NC(=O)CCC(=O)O)C(=O)N1CCC[C@H]1C(=O)N[C@@H](CCC(=O)O)C(=O)N[C@@H](Cc1ccc(OS(=O)(=O)O)cc1)C(=O)N[C@@H](Cc1ccc(OS(=O)(=O)O)cc1)C(=O)N[C@@H](CC(C)C)C(=O)O [Sulfated form of (Q)] (Suc-FEPIPE[sY][sY]L-OH) have IC50 strictly under 3 µM? 1

Hey, just so you know, these numbers are from patent US5880258A.
